Test: qHTS screen for small molecules that inhibit ELG1-dependent DNA repair in human embryonic kidney (HEK293T) cells expressing luciferase-tagged ELG1; further: nearly all actives have a fitted effect of over 55% in size
Details: HEK293T ELG1-luciferase reporter, luminescence, 16 h, DNA damage induced by 5-fluorouridine; series mostly up to 46.1 µM
About 7,700 (2.3%) of roughly 330,000 compounds were called active. Not shown: some 26% with an inconclusive outcome. The call rests on the fitted dose curve; in most records, active means well fitted inhibition curve with a large enough effect; inconclusive means small, poorly fitted or top-dose-only effect, or effect the other way; inactive means flat fitted curve, though single readings scatter. For the sample, actives were picked, then their nearest neighbours and some compounds at random.
Outcome codes: Yes = active, No = inactive

{"Compound": "Cc1noc(C)c1S(=O)(=O)N(C)C[C@H]1Oc2ccc(NC(=O)C3CC3)cc2C(=O)N([C@H](C)CO)C[C@@H]1C", "Class label": "No"}
{"Compound": "CC1(C)CC(=O)C=C(c2ccc(Cl)c(C(F)(F)F)c2)C1", "Class label": "No"}
{"Compound": "COC(=O)[C@]1(S(=O)(=O)c2ccccc2)C[C@@H]2ON=C(c3ccc(OC)cc3)[C@@H]2C1", "Class label": "No"}
{"Compound": "O=C(NN=Cc1ccc(N2CCOCC2)cc1)c1cc2ccccc2cc1O", "Class label": "No"}
{"Compound": "O=C(c1ccccc1)c1ccc(C(=O)N2CCN(c3ccccc3)CC2)cc1", "Class label": "No"}
{"Compound": "CC(=O)Oc1ccc2c(=O)oc(-c3ccc([N+](=O)[O-])cc3)nc2c1", "Class label": "No"}
{"Compound": "CC(=O)N1c2ccc(S(=O)(=O)N3CCCC(C(=O)Nc4ccc(C)cc4C)C3)cc2CC1C (stereo not given)", "Class label": "No"}
{"Compound": "O=C(Nc1ccc(C(F)(F)F)cc1)c1cccc(-n2cnnn2)c1", "Class label": "No"}
{"Compound": "COc1ccccc1-c1nn(Cc2ccccc2)cc1C(=O)N1CCN(c2ncccn2)CC1", "Class label": "No"}
{"Compound": "O=C(c1ccc(Cl)c([N+](=O)[O-])c1)N1CCN(c2ccccc2)CC1", "Class label": "No"}
{"Compound": "COc1ccc(NC(=O)COC(=O)c2n[nH]c3ccccc23)c(OC)c1", "Class label": "No"}
{"Compound": "O=C(c1cccc(C(=O)N2CCN(c3ccc(F)cc3)CC2)c1)N1CCN(c2ccc(F)cc2)CC1", "Class label": "Yes"}
{"Compound": "CC1(C)CC(=O)C=C(c2cccc3c2Oc2ccccc2S3)C1", "Class label": "No"}
{"Compound": "O=C(c1cccc(F)c1)N1CCN(c2ccc([N+](=O)[O-])c(N3CCCCC3)c2)CC1", "Class label": "No"}
{"Compound": "CCN1C(=O)[C@@H]2[C@@H](c3ccc(-c4ccc(OC)cc4)c(OC)c3)N3CCC[C@@]3(C(=O)OC)[C@@H]2C1=O", "Class label": "No"}
{"Compound": "COCCCNC(=O)CC1C[C@H](C(=O)N2CCCCC2)[C@@]2(CCc3ccccc3)c3[nH]c4ccccc4c3CCN2C1=O (stereo not given in full)", "Class label": "No"}
{"Compound": "CCCCC(CC)CNCc1cccn1CCN1CCOCC1 (stereo not given)", "Class label": "No"}
{"Compound": "COC(=O)C1CCN(C(=O)NC2CC(=O)N(c3ccc4c(c3)OCCO4)C2)CC1 (stereo not given)", "Class label": "No"}
{"Compound": "O=C(c1cc2cc(F)ccc2[nH]1)N1CCN(c2ccc(F)cc2)CC1", "Class label": "No"}
{"Compound": "CCN(C(=O)COC(=O)CCOc1cccc(C)c1)c1c(N)n(Cc2ccccc2)c(=O)[nH]c1=O", "Class label": "No"}
